molecular target: mGluR4 (Homo sapiens); assay: mGlu4 PAM potentiation assay, CHO cells transfected with human mGluR4, Ca2+-sensitive dye fluorescence
Sequence (Q14833 33-912 limits assumed): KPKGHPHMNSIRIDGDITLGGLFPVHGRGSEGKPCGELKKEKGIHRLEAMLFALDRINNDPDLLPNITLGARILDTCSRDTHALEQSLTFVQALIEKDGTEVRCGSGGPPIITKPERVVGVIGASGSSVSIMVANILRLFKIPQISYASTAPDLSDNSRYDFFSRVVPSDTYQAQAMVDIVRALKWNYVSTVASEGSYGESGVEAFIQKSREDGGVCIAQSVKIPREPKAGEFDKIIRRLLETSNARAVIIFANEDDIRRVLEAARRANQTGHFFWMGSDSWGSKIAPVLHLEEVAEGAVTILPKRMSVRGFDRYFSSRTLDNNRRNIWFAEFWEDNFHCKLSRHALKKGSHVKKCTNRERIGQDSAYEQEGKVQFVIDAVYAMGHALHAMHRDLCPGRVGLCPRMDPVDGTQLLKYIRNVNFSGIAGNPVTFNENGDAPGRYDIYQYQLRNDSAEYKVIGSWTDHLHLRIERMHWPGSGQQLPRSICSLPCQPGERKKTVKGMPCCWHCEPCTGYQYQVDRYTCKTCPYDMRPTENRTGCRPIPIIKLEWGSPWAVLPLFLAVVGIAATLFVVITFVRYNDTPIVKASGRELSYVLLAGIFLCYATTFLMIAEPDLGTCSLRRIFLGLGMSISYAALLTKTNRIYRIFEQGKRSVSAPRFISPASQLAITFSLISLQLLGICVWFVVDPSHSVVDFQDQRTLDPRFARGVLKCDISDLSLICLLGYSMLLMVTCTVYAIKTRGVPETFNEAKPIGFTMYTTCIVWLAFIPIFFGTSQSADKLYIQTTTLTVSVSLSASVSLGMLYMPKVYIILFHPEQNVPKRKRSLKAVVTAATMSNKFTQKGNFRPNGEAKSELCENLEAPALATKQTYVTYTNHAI
Hi all, reminder that labels come from EC50, split as 1: < 100 nM; 2: ≥ 100 nM and < 400 nM; 3: ≥ 400 nM

- Molecule: "O=C(Nc1ccc2c(OCC3CCOC3)nccc2c1)c1cccc(F)n1 (stereo not shown)"
  Target of assay: "mGluR4 (Homo sapiens)"
  Class name: 2
- Molecule: "Nc1cccnc1C(=O)Nc1ccc2c(O[C@H]3CCOC3)nccc2c1"
  Target of assay: "mGluR4 (Homo sapiens)"
  Class name: 3
- Molecule: "CC1(C)CC(Oc2nccc3cc(NC(=O)c4ncccc4N)cc(F)c23)CCO1 (stereo not shown)"
  Target of assay: "mGluR4 (Homo sapiens)"
  Class name: 2
- Molecule: "O=C(Nc1ccc2c(OCC3COCCO3)ncc(F)c2c1)c1ccccn1 (stereo not shown)"
  Target of assay: "mGluR4 (Homo sapiens)"
  Class name: 3
- Molecule: "O=C(Nc1cc(F)c2c(OCC3CCOC3)nccc2c1)c1ccc(F)cn1 (stereo not shown)"
  Target of assay: "mGluR4 (Homo sapiens)"
  Class name: 1
- Molecule: "O=C(Nc1ccc2c(OCC3CCOC3)nccc2c1)c1ncc(F)cc1F (stereo not shown)"
  Target of assay: "mGluR4 (Homo sapiens)"
  Class name: 3

Sort CC1CC(COc2nccc3cc(NC(=O)c4ccccn4)ccc23)CCO1 (stereo not shown) into one of the categories.
1

Sort O=C(Nc1ccc2c(OC3CCSC3)nccc2c1)c1ccccn1 (stereo not shown) into one of the categories.
3

Sort O=C(Nc1ccc2c(OCC3CCOC3)nccc2c1)c1ncc[nH]1 (stereo not shown) into one of the categories.
2

Sort O=C(Nc1cc(F)c2c(OCC3CCOC3)nccc2c1)c1ccccn1 (stereo not shown) into one of the categories.
1

Sort CC1CC(Oc2nccc3cc(NC(=O)c4ccccn4)ccc23)CCO1 (stereo not shown) into one of the categories.
3

Sort O=C(Nc1ccc2c(OCC3CCOCC3)nccc2c1)c1ccc(F)cn1 into one of the categories.
1

Sort COCCOc1nccc2cc(NC(=O)c3ccccn3)ccc12 into one of the categories.
3

Sort O=C(Nc1ccc2c(OCC3CCOC3)nccc2c1)c1ncc(F)cc1Cl (stereo not shown) into one of the categories.
3

Sort CC(C)(C)OCCOc1nccc2cc(NC(=O)c3ccccn3)ccc12 into one of the categories.
3

Sort CCOCCOc1nccc2cc(NC(=O)c3ccccn3)ccc12 into one of the categories.
3

Sort O=C(Nc1ccc2c(OCC3CCOCC3)nccc2c1)c1ccccn1 into one of the categories.
1

Sort CC1(COc2nccc3cc(NC(=O)c4ncccc4O)ccc23)CCOCC1 into one of the categories.
2

Sort O=C(Nc1cc(F)c2c(OCC3COCCO3)nccc2c1)c1ccccn1 (stereo not shown) into one of the categories.
2
